Test system: SW480
protocol-notes: TCF/Wnt firefly luciferase reporter signal relative to plate median (fraction of plate median); higher = higher Wnt reporter signal
measurement-conditions: 5 µM; treatment time 24 h; reporter: 7TFP
Recorded TCF/Wnt firefly luciferase reporter signal values for a group of compounds are listed next.
Output: the number by itself.

Worked cases, answers included:
[
  {
    "compound": "O=C(O)CCC(=O)c1ccc(-c2ccccc2)cc1",
    "test-result": 1.04
  },
  {
    "compound": "COC1=CC(=O)C[C@@H](C)[C@]12Oc1c(Cl)c(OC)cc(OC)c1C2=O",
    "test-result": 0.89
  },
  {
    "compound": "O=C(O)c1ccccc1Nc1cccc(C(F)(F)F)c1",
    "test-result": 1.07
  },
  {
    "compound": "C[C@@H]1CC(=O)c2c(ccc3c2C(=O)c2cccc(O)c2C3=O)C1 [Ochromycinone (Isoform C, Compound ID 7613)]",
    "test-result": 1.04
  },
  {
    "compound": "C#C[C@]1(O)CC[C@H]2[C@@H]3CCc4cc(O)ccc4[C@H]3CC[C@@]21C",
    "test-result": 1.04
  },
  {
    "compound": "CC1(C)S[C@@H]2[C@H](NC(=O)[C@H](C(=O)O)c3ccsc3)C(=O)N2[C@H]1C(=O)O",
    "test-result": 1.07
  }
]

Task item: For "CCN1CCN(C(=O)N[C@@H](C(=O)N[C@@H]2C(=O)N3[C@@H]2SC(C)(C)[C@@H]3C(=O)O)c2ccccc2)C(=O)C1=O" , what is its reported TCF/Wnt firefly luciferase reporter signal?
Reply: 1.03

* * *

Recorded TCF/Wnt firefly luciferase reporter signal values for a group of molecules are listed next.
Tested on: DLD1
protocol-notes: TCF/Wnt firefly luciferase reporter signal relative to plate median (fraction of plate median); higher = higher Wnt reporter signal
measurement-conditions: 5 µM; treatment time 24 h; reporter: 7TFP
Output: the number by itself.

Task item: Value wanted: TCF/Wnt firefly luciferase reporter signal (DLD1) of entry "CNC(=C[N+](=O)[O-])NCCSCc1ccc(CN(C)C)o1"
Reply: 0.998

* * *

Test system: SW480
protocol-notes: TCF/Wnt firefly luciferase reporter signal relative to plate median (fraction of plate median); higher = higher Wnt reporter signal
measurement-conditions: 5 µM; treatment time 24 h; reporter: 7TFP
reported-metric: TCF/Wnt firefly luciferase reporter signal
Output: the number by itself.

Worked cases, answers included:
[
  {
    "smiles-data": "O=C(O)c1cccc(O)c1O",
    "test-result": 0.947
  },
  {
    "smiles-data": "COC(=O)/C=C/c1ccc(O)c(O)c1",
    "test-result": 1.04
  },
  {
    "smiles-data": "CO[C@@]12[C@H](COC(N)=O)C3=C(C(=O)C(C)=C(N)C3=O)N1C[C@@H]1N[C@@H]12",
    "test-result": 0.843
  }
]

Now consider a different compound.
Task item: For "C=C1c2c(Cl)ccc(O)c2C(=O)C2=C(O)[C@]3(O)C(=O)C(C(N)=O)=C(O)[C@@H](N(C)C)[C@@H]3[C@@H](O)[C@H]12.O=C(O)c1cc(S(=O)(=O)O)ccc1O" , what is its reported TCF/Wnt firefly luciferase reporter signal?
Reply: 0.893

* * *

Test system: DLD1
protocol-notes: TCF/Wnt firefly luciferase reporter signal relative to plate median (fraction of plate median); higher = higher Wnt reporter signal
measurement-conditions: 5 µM; treatment time 24 h; reporter: 7TFP
Recorded TCF/Wnt firefly luciferase reporter signal values for a group of compounds are listed next.
Output: the number by itself.

Worked cases, answers included:
[
  {
    "compound": "NC(=O)c1cc[n+](CC2=C(C(=O)O)N3C(=O)[C@@H](NC(=O)[C@@H](c4ccccc4)S(=O)(=O)[O-])[C@H]3SC2)cc1",
    "target-or-test-system": "DLD1",
    "test-result": 0.967
  },
  {
    "compound": "NS(=O)(=O)c1ccc(S(=O)(=O)Nc2cccc3c(Cl)c[nH]c23)cc1 [indisulam]",
    "target-or-test-system": "DLD1",
    "test-result": 1.17
  }
]

Now consider a different compound.
Task item: For "NC[C@@H]1O[C@@H](O[C@H]2[C@H](O)[C@@H](O[C@H]3O[C@H](CO)[C@@H](O)[C@H](N)[C@H]3O)[C@H](N)C[C@@H]2N)[C@@H](O)[C@H](O)[C@H]1O" , what is its reported TCF/Wnt firefly luciferase reporter signal?
Reply: 1.02
